The compounds listed here are annotated with their activity coefficient.
- test-method-notes: activity coefficient (dimensionless); of the first substance listed, at infinite dilution; xn = mol fraction of the nth substance listed
- measurement-parameters: 358.15 K; 101 kPa; Liquid; Chromatography; x1 = 0
measured-parameter: activity coefficient

[[record]]
compound = "C#CCCC [1-pentyne] + CCCCn1cc[n+](C)c1.CS(=O)(=O)[O-]"
measured_parameter = "activity coefficient"
observed_value = 5.46

[[record]]
compound = "CCCOCCC [dipropyl ether] + CCCCn1cc[n+](C)c1.[Cl-]"
measured_parameter = "activity coefficient"
observed_value = 57.4

[[record]]
compound = "COC(C)(C)C [2-methoxy-2-methylpropane] + CCCCn1cc[n+](C)c1.CS(=O)(=O)[O-]"
measured_parameter = "activity coefficient"
observed_value = 17

[[record]]
compound = "C1CCCCCC1 [cycloheptane] + CCCCn1cc[n+](C)c1.COP(=O)([O-])OC"
measured_parameter = "activity coefficient"
observed_value = 15.1

[[record]]
compound = "CCCC=O [butanal] + CCCCn1cc[n+](C)c1.[Cl-]"
measured_parameter = "activity coefficient"
observed_value = 5.24

[[record]]
compound = "C=Cc1ccccc1 [styrene] + CCCCn1cc[n+](C)c1.COP(=O)([O-])OC"
measured_parameter = "activity coefficient"
observed_value = 2.79

[[record]]
compound = "CCCC(C)=O [pentan-2-one] + CCCCn1cc[n+](C)c1.CS(=O)(=O)[O-]"
measured_parameter = "activity coefficient"
observed_value = 4.5

